Just for reference, PubChem BioAssay AID220 is where these values come from.

Tested on: CD8F1 mice, subcutaneous mammary adenocarcinoma, T/C%
Assay: NCI In Vivo Anticancer Drug Screen. Data for tumor model Mammary Adenocarcinoma CD8F1 (subcutaneous) in CD8F1
Conditions: endpoint: median tumor weight (est.); dose: 400.0 mg/kg/injection; schedule: Q07DX005 (ip); vehicle: saline with Tween-80; higher = larger tumour
Records with an inconclusive call do not appear.
Parameter measured: T/C

INSERT INTO assay_data (compound, parameter_measured, value_reported) VALUES
  ('C[Si](C)(C)n1nnn(-c2ccccc2)c1=O', 'T/C', '87 % of control'),
  ('CCOC(=O)c1ccc(NC(=O)Nc2nccs2)cc1', 'T/C', '43 % of control');

Sure, the documented T/C for CCCCCCCCCCCCCCCCCCCCCC(=O)Nc1ccn(C2OC(CO)C(O)C2O)c(=O)n1 (stereo unspecified) is 53 % of control

Sure, the documented T/C for "ClC(Cl)(Cl)C1=NCc2nnn(Cc3ccccc3)c2N1" is 96 % of control

Sure, the documented T/C for C(COCCOCC1CO1)OCCOCC1CO1 (stereo unspecified) is 112 % of control

Sure, the documented T/C for "O=C1N(Cl)C(=O)C(c2ccc(Cl)cc2)(c2ccc(Cl)cc2)N1Cl" is 43 % of control

----------
System: CD8F1 mice, subcutaneous mammary adenocarcinoma, T/C%
Test: NCI In Vivo Anticancer Drug Screen. Data for tumor model Mammary Adenocarcinoma CD8F1 (subcutaneous) in CD8F1
Conditions: endpoint: median tumor weight change; dose: 100.0 mg/kg/injection; schedule: Q01DX001 (ip); vehicle: Klucel (hydroxypropylcellulose) (HPC); higher = larger tumour
Records with an inconclusive call do not appear.
Parameter measured: T/C

Some solved entries appear below for comparison.
INSERT INTO measurements (molecule, value_reported) VALUES
  ('C#C[C@]1(O)CC[C@H]2[C@@H]3CCc4cc(O)ccc4[C@H]3CC[C@@]21C', '63 % of control'),
  ('C[C@]12CCC(=O)C=C1CC[C@@H]1[C@@H]2[C@@H](O)C[C@@]2(C)[C@H]1CC[C@]2(O)C(=O)CO', '101 % of control'),
  ('C[C@]12C=CC(=O)C=C1CC[C@@H]1[C@@H]2[C@@H](O)C[C@@]2(C)[C@H]1CC[C@]2(O)C(=O)CO', '111 % of control');

Kindly review the next molecule as well.
Sure, the documented T/C for COc1ccc2[nH]c3c(c2c1)CCNC3CC(C)CCC=C(C)C (centres undefined) is 51 % of control

----------
Test system: CD8F1 mice, subcutaneous mammary adenocarcinoma, T/C%
Test: NCI In Vivo Anticancer Drug Screen. Data for tumor model Mammary Adenocarcinoma CD8F1 (subcutaneous) in CD8F1
Conditions: endpoint: median tumor weight (est.); dose: 100.0 mg/kg/injection; schedule: Q07DX005 (ip); vehicle: saline with Tween-80; higher = larger tumour
Results filed as inconclusive are left out.
Parameter measured: T/C

Some solved entries appear below for comparison.
INSERT INTO results (compound, parameter_measured, value_reported) VALUES
  ('CN(C)c1nc(N(C)C)nc(N(C)C)n1', 'T/C', '62 % of control'),
  ('Cn1ccc(=Nc2ccc(NC(=O)c3ccc(N=c4ccn(C)c5ccc([N+](=O)[O-])cc45)cc3[N+](=O)[O-])cc2)cc1', 'T/C', '48 % of control'),
  ('Nc1nc2c(ncn2C2OC(CO)C(O)C2O)c(=O)[nH]1 (stereo not given)', 'T/C', '86 % of control');

Sure, the documented T/C for O=c1cnn(C2OC(CO)C(O)C2O)c(=O)[nH]1 (stereo not given) is 63 % of control

Sure, the documented T/C for CCCCCCCCCCCCCCCCCC(=O)Nc1ccn(C2OC(CO)C(O)C2O)c(=O)n1 (stereo not given) is 13 % of control

Sure, the documented T/C for "Cc1ncc([N+](=O)[O-])n1CCSC(N)=O" is 96 % of control

Sure, the documented T/C for COC1=C(OC)C(=O)C(SC/C=C(\C)CCCC(C)CCCC(C)CCCC(C)C)=CC1=O (stereo not given) is 68 % of control

Sure, the documented T/C for "CCOC(=O)c1ccc(NC(=O)Nc2nccs2)cc1" is 96 % of control

Sure, the documented T/C for "CN1CCN(CCCN2c3ccccc3Sc3ccc(C(F)(F)F)cc32)CC1" is 95 % of control

Sure, the documented T/C for "COC(=O)C(Cl)(Cl)N=Nc1c(Cl)cc(Cl)c(C)c1Cl" is 71 % of control

Sure, the documented T/C for "Cc1ccc(S(=O)(=O)NC(=S)S)cc1" is 91 % of control

Sure, the documented T/C for CCCCCCCCCCCCCCCCCCCCCC(=O)Nc1ccn(C2OC(CO)C(O)C2O)c(=O)n1 (stereo not given) is 69 % of control

Sure, the documented T/C for C(COCCOCC1CO1)OCCOCC1CO1 (stereo not given) is 110 % of control

Sure, the documented T/C for CCSC(=O)N1c2ccc(OC)cc2C=CC1C#N (stereo not given) is 90 % of control

Sure, the documented T/C for "CN1CCN(Cc2nc3cccc4c3c([n+]2[O-])-c2ccccc2-4)CC1" is 120 % of control

----------
Test system: CD8F1 mice, subcutaneous mammary adenocarcinoma, T/C%
Assay: NCI In Vivo Anticancer Drug Screen. Data for tumor model Mammary Adenocarcinoma CD8F1 (subcutaneous) in CD8F1
Settings: endpoint: median tumor weight change; dose: 31.25 mg/kg/injection; schedule: Q01DX001 (ip); vehicle: saline with Tween-80; higher = larger tumour
Inconclusive results are not listed.
The reader will find reported T/C values listed item by item below.

Some solved entries appear below for comparison.
INSERT INTO assay_data (molecule, parameter_measured, value_reported) VALUES
  ('C/C(=N\N=C(/[Se])N1CC2CCC(CC2)C1)c1ccccn1', 'T/C', '87 % of control'),
  ('CCCCCCCCCCCCN1C(C)=CS/C1=C\C=C\c1scc(C)[n+]1CCCCCCCCCCCC', 'T/C', '65 % of control'),
  ('O=C1c2cccc3cc([N+](=O)[O-])cc(c23)C(=O)N1CCN1CCCC1', 'T/C', '63 % of control'),
  ('COc1cc(OC)c(NC(=O)ON2C(=O)c3ccccc3C2=O)cc1Cl', 'T/C', '62 % of control'),
  ('Cc1ccc2c(c1)N=C(Nc1ccccc1)N=S2(C)=O (configuration not stated)', 'T/C', '67 % of control'),
  ('Cc1cc(O)c2c(c1O)C(=O)C13C(=C2O)C(=O)C2C(O)C1C1C(O)C3C(=O)C3=C(O)c4c(O)cc(C)c(O)c4C(=O)C321 (configuration not stated)', 'T/C', '100 % of control');

Kindly review the next molecule as well.
Fill in: CD8F1 mice, subcutaneous mammary adenocarcinoma, T/C% T/C for "CO[C@@H]1[C@H](O)CC[C@]2(CO2)[C@H]1[C@@]1(C)O[C@@H]1CC=C(C)C" = 113 % of control

----------
Test system: CD8F1 mice, subcutaneous mammary adenocarcinoma, T/C%
Test: NCI In Vivo Anticancer Drug Screen. Data for tumor model Mammary Adenocarcinoma CD8F1 (subcutaneous) in CD8F1
Conditions: endpoint: median tumor weight (est.); dose: 200.0 mg/kg/injection; schedule: Q07DX005 (ip); vehicle: water; higher = larger tumour
Experimental: The antitumor activity of compounds was measured in mice bearing transplantable tumors. Survival or tumor size were measured and the results are expressed as the measurement made in the treated group (T) divided by the measurement made in the vehicle treated control group (C). The tumor model used in this assay is Mammary Adenocarcinoma CD8F1 (subcutaneous) in CD8F1
Records with an inconclusive call do not appear.
The reader will find reported T/C values listed item by item below.

INSERT INTO assay_data (compound, parameter_measured, value_reported) VALUES
  ('Nc1nc2c(ncn2C2OC(CO)C(O)C2O)c(=O)[nH]1.Nc1nc2c(ncn2C2OC(CO)C(O)C2O)c(=O)[nH]1.[NH2-].[NH2-].[Pt+2] (centres undefined)', 'T/C', '40 % of control'),
  ('O=C(O)c1c2c(nc3ccccc13)Cc1ccccc1-2', 'T/C', '60 % of control'),
  ('O=C(O)CSc1nc(-c2ccccc2)c(-c2ccccc2)n1-c1ccccn1', 'T/C', '64 % of control');

Kindly review the next compound as well.
Sure, the documented T/C for O=C(O)C1CC(c2ccccc2)=NN1c1ccccc1 (centres undefined) is 70 % of control

----------
Test system: CD8F1 mice, subcutaneous mammary adenocarcinoma, T/C%
Test: NCI In Vivo Anticancer Drug Screen. Data for tumor model Mammary Adenocarcinoma CD8F1 (subcutaneous) in CD8F1
Conditions: endpoint: median tumor weight change; dose: 1.0 mg/kg/injection; schedule: Q01DX001 (ip); vehicle: saline; higher = larger tumour
Records with an inconclusive call do not appear.
Parameter measured: T/C

INSERT INTO measurements (molecule, system_under_test, parameter_measured, value_reported) VALUES
  ('CC[C@]1(O)C[C@H]2CN(CCc3c([nH]c4ccccc34)[C@@](C(=O)OC)(c3cc4c(cc3OC)N(C)[C@H]3[C@@](O)(C(=O)OC)[C@H](OC(C)=O)[C@]5(CC)C=CCN6CC[C@]43[C@@H]65)C2)C1', 'CD8F1 mice, subcutaneous mammary adenocarcinoma, T/C%', 'T/C', '81 % of control');

Sure, the documented T/C for C/C=C1\C[C@@H]2C(OC)Nc3cc(O)c(OC)cc3C(=O)N2C1 (some centres undefined) is 92 % of control

Sure, the documented T/C for NC(=O)c1cn(C2OC(CO)C(O)C2O)c2ncnc(N)c12 (centres undefined) is 81 % of control

Sure, the documented T/C for COC1C(O)CC(OC2CC(Oc3cc4cc5c(c(O)c4c(O)c3C)C(=O)[C@@H](OC3CC(OC4CC(OC6CC(C)(O)C(OC(C)=O)C(C)O6)C(O)C(C)O4)C(O)C(C)O3)[C@H]([C@H](OC)C(=O)[C@@H](O)[C@@H](C)O)C5)OC(C)C2OC(C)=O)OC1C (some centres undefined) is 44 % of control
